- Experimental Protocol: protein stability index of a GFP-peptide fusion (yeast GPS) (PSI 1-4); higher = more stable; sorted into four equal gates, so the index is relative within each strain
- Applied Conditions: doa10∆
# protein stability index >= 3 gives rule met, anything below gives rule not met

sequence_entry="SCHGHFGHLKLALPVFH [RPO31]" cat="rule not met"
sequence_entry="TSPSYSPTSPSYSPTSP [RPO21]" cat="rule not met"
sequence_entry="RQIRPIMERIKSSLSLR [ITC1]" cat="rule not met"
sequence_entry="GTGLFGQQTAQPQQSTI [YGR119C/NUP57]" cat="rule not met"
sequence_entry="CNGSALVEARSLGHQTS [MTR3]" cat="rule met"
sequence_entry="RMRFPPFDDDEPPLSYE [PRP8]" cat="rule not met"
sequence_entry="IRFVCLSNCLANARDFG [BRR2]" cat="rule not met"
sequence_entry="KLQFETDRLSTTQRRYE [SMC1]" cat="rule met"
sequence_entry="SKKIVPSPKKVAIDQDK [SIR4]" cat="rule not met"

###

- Experimental Protocol: protein stability index of a GFP-peptide fusion (yeast GPS) (PSI 1-4); higher = more stable; sorted into four equal gates, so the index is relative within each strain
- Applied Conditions: san1∆
Label scheme for protein stability index: band 1 = under 2, band 2 = from 2 up to 3, band 3 = 3 and over

sequence_entry="KVQDAIEEEIFDDSSRI [LIN1]" cat="band 3"
sequence_entry="KLYQTEPSGIYSSWSAQ [PRE6]" cat="band 2"
sequence_entry="IRAQNFKSALANLEDII [RRP6]" cat="band 2"
sequence_entry="SDTLKEFKIEQNNEQNP [YDL116W/NUP84]" cat="band 2"
sequence_entry="AAKPDNLANFSNEVAMN [SWP82]" cat="band 3"
sequence_entry="QQQQQQQQQTSPPPQTH [SNF5]" cat="band 2"
sequence_entry="RGEIREIEQVCKQVHDK [MED7]" cat="band 2"
sequence_entry="KELNEKIQKLEEDDEGE [RPN7]" cat="band 1"
sequence_entry="VIDIEIHVLEQDGGIMG [SKI6]" cat="band 2"
sequence_entry="QLNEERSRYRREIDALK [YIL149C/MLP2]" cat="band 3"
sequence_entry="SPEEQRSLLQEAIETCK [GAL11]" cat="band 2"
sequence_entry="QQPNPLHGLTPTAKDVE [GAL11]" cat="band 3"
sequence_entry="IKIEDFVDDMLRDYRFE [SNF5]" cat="band 3"
sequence_entry="GQNCLDIDGIMDNPRKL [SNU114]" cat="band 3"
sequence_entry="LPKLKATGHRVLIFFQM [SNF2]" cat="band 2"
sequence_entry="TAVVNNAAPANVTGGKA [SWI1]" cat="band 2"
sequence_entry="NASLTIEDEDEPFNAGI [SMC1]" cat="band 3"
sequence_entry="IKQTFKNDLFVIWSEDN [RPO21]" cat="band 2"
sequence_entry="GWSLVGRILQNLLHSYM [YML103C/NUP188]" cat="band 1"
sequence_entry="QACGLVKNLSLMSCISV [RPB2]" cat="band 2"
sequence_entry="ISSLFTITTILILGLNT [YML103C/NUP188]" cat="band 1"
sequence_entry="SSHQRVFKLSTNLISKI [SWP82]" cat="band 1"
sequence_entry="SQIRLYAKFKRNTMMIQ [RGR1]" cat="band 2"
sequence_entry="KTNFQDVILDYQTKKFY [REC8]" cat="band 1"
sequence_entry="IKEDIEKFDLERVTALK [SMC1]" cat="band 3"
sequence_entry="MNETLNLKVELKEQSEQ [SMC4]" cat="band 2"
sequence_entry="WKTAEEVSALVRSLPKE [PRP8]" cat="band 1"
sequence_entry="KKLPRKTHRGLRKVACI [RPL3]" cat="band 2"
sequence_entry="VKLQMIKFGGLIIQKIP [ECM29]" cat="band 1"
sequence_entry="LCSMLQEASQVTFIFGE [MED11]" cat="band 2"
sequence_entry="KELDQELIIDPLFKKAL [BRN1]" cat="band 3"
sequence_entry="KNATEELLRLANEQLKL [CSN12]" cat="band 2"
sequence_entry="FKGTDFVHSVKKFLRVR [SRB4]" cat="band 2"
sequence_entry="LFWKVKEEEGSFNNVIG [PRE2]" cat="band 3"
sequence_entry="QRQLLVQQQQQQQLRNQ [SNF5]" cat="band 2"
sequence_entry="RLMMNSKVGSADTGRDD [RPN11]" cat="band 3"
sequence_entry="RERRIHVTQEDFELAVG [RPT6]" cat="band 2"
sequence_entry="SETREKELESIDVLLEQ [RPB4]" cat="band 2"
sequence_entry="DYLFHLLISLNILFSLW [YLR018C/POM34]" cat="band 1"
sequence_entry="LDRPEYLKKREAGEVKD [RPL10]" cat="band 3"
sequence_entry="MNGNSTNNEQLQQELAT [NUT2]" cat="band 3"
sequence_entry="QQAQSFVGKKNTIGSVH [SSN3]" cat="band 3"
sequence_entry="VQPTIGQLPQLPKLNLP [SNF5]" cat="band 2"
sequence_entry="HEAKERIRQKEVTAGEA [SNF6]" cat="band 2"
sequence_entry="ARIVRVRSREDRKNRAP [RPS26A]" cat="band 3"
sequence_entry="DGHLQFLNDVIPTTKNL [DLS1]" cat="band 2"
sequence_entry="DIWSISKKRQAEKLVPL [YML031W/NDC1]" cat="band 2"
sequence_entry="ESQPKQTGTRRNSKLLN [MCD1]" cat="band 3"
